This section presents compounds with their documented IC50 values.
- Experimental target: human constitutive proteasome β5c (Homo sapiens)
- Construct: purchased Boston Biochem Inc
- Test protocol: IC50 against chymotryptic β5c activity of human constitutive proteasome (96-well plate, Suc-LLVY-AMC)
- Format: biochemical
- Test parameters: β5c; substrate Suc-LLVY-AMC; read-out: IC50 Hu c-20S (Suc-LLVY-AMC)
Measured attribute: IC50 (µM)

Compound: CC(C)(C)OC(=O)NCC(=O)NCCNC(=O)c1cc(-c2ccccc2F)ccc1F
Bound sign: >
Data value: 100
//
Compound: Cc1ccc(S(=O)(=O)N[C@@H](C)C(=O)NCCNC(=O)c2cc(-c3ccccc3F)ccc2F)cc1
Bound sign: >
Data value: 100
//
Compound: Cc1ccc(S(=O)(=O)N[C@@H](CC(N)=O)C(=O)NCCNC(=O)c2cc(-c3ccccc3F)ccc2F)cc1
Bound sign: >
Data value: 100
//
Compound: CC(C)(C)NC(=O)C[C@H](NC(=O)CCc1ccccc1)C(=O)NCCNC(=O)c1cc(-c2ccccc2)ccn1
Bound sign: =
Data value: 2.76
//
Compound: CC(C)(C)NC(=O)C[C@H](NC(=O)CCc1ccccc1)C(=O)NCCNC(=O)c1cccc(-c2ccc(F)cc2)c1
Bound sign: =
Data value: 1.16
//
Compound: C[C@H](NC(=O)OC(C)(C)C)C(=O)NCCNC(=O)c1cc(-c2ccccc2F)ccc1F
Bound sign: >
Data value: 100
//
Compound: CC(C)(C)NC(=O)C[C@H](NC(=O)CCc1ccc(F)cc1)C(=O)NCCNC(=O)c1ccccc1F
Bound sign: =
Data value: 3.64
//
Compound: CC(C)(C)NC(=O)C[C@H](NC(=O)CCc1ccccc1)C(=O)NCCNC(=O)c1cc(-c2ccccc2F)ccc1F
Bound sign: =
Data value: 0.36
//
Compound: Cc1ccc(S(=O)(=O)N[C@@H](CC(=O)NC(C)(C)C)C(=O)NCCNC(=O)c2ccccc2O)cc1
Bound sign: =
Data value: 0.187
//
Compound: CC(C)(C)NC(=O)C[C@H](NC(=O)CCc1ccccc1)C(=O)NCCNC(=O)c1ccc2ccccc2c1
Bound sign: =
Data value: 3.6
//
Compound: Cc1cc(C(=O)N[C@@H](CC(=O)NC(C)(C)C)C(=O)NCCNC(=O)c2ccccc2F)no1
Bound sign: =
Data value: 39
//
Compound: CC(C)(C)NC(=O)C[C@H](NC(=O)CCc1ccccc1)C(=O)NCCNC(=O)c1cc(-c2ccccc2)ccc1F
Bound sign: =
Data value: 0.818
//
Compound: CC(CNC(=O)c1cccc(-c2ccccc2)c1)NC(=O)[C@H](CC(=O)NC(C)(C)C)NC(=O)CCc1ccccc1 (mixture of isomers)
Bound sign: =
Data value: 14.6
//
Compound: CC(=O)N[C@@H](CC(=O)NC(C)(C)C)C(=O)NCCNC(=O)c1cc(-c2ccccc2F)ccc1F
Bound sign: =
Data value: 13.3
//
Compound: CC(C)(C)NC(=O)C[C@H](NC(=O)OC(C)(C)C)C(=O)NCCNC(=O)c1cc(-c2ccccc2F)ccc1F
Bound sign: =
Data value: 3.65
//
Compound: Cc1ccc(S(=O)(=O)N[C@@H](CC(=O)NC(C)(C)C)C(=O)NCCNC(=O)c2cccc(N3CCNC3=O)c2)cc1
Bound sign: =
Data value: 2.39
//
Compound: Cc1ccc(S(=O)(=O)N[C@@H](CC(=O)NC(C)(C)C)C(=O)NCCNC(=O)c2ccccc2F)cc1
Bound sign: =
Data value: 0.52
//
Compound: CC(C)(C)NC(=O)C[C@H](NC(=O)CCc1ccccc1)C(=O)NCCNC(=O)c1cccc(-c2ccc(C#N)cc2)c1
Bound sign: =
Data value: 7.25
//
Compound: Cc1cc(C(=O)N[C@@H](CC(=O)NC(C)(C)C)C(=O)NCCNC(=O)c2ccccn2)no1
Bound sign: >
Data value: 100
//
Compound: Cc1cc(C(=O)N[C@@H](CC(=O)NC(C)(C)C)C(=O)NCCNC(=O)c2cccc(-c3cc[nH]n3)c2)no1
Bound sign: =
Data value: 21.1

====

EC50 values for the compounds below.
- Test system: Plasmodium falciparum
- Test protocol: Growth of Plasmodium falciparum in red blood cells (SYBR Green, 72 hours)
- Format: cell-based
- Test parameters: Erythrocyte, P.f. 3D7, growth in red blood cells, read-out: EC50 (nM) (P.f.)

Compound: CC(CNC(=O)c1cccc(-c2ccccc2)c1)NC(=O)[C@H](CC(=O)NC(C)(C)C)NC(=O)CCc1ccccc1 (mixture of isomers)
EC50, nM: 364
--
Compound: Cc1cc(C(=O)N[C@@H](CC(=O)NC(C)(C)C)C(=O)NCCNC(=O)c2cccc(-c3cc[nH]n3)c2)no1
EC50, nM: 34
--
Compound: Cc1ccc(S(=O)(=O)N[C@@H](CC(=O)NC(C)(C)C)C(=O)NCCNC(=O)c2cc(-c3ccccc3F)ccc2F)cc1
EC50, nM: 0.55
--
Compound: Cc1cc(C(=O)N[C@@H](CC(=O)NC(C)(C)C)C(=O)NCCNC(=O)c2cccc(-n3cccn3)c2)no1
EC50, nM: 29
--
Compound: CC(C)(C)NC(=O)C[C@H](NC(=O)CCc1ccccc1)C(=O)NCCNC(=O)c1cccc(-c2ccccc2)c1
EC50, nM: 4.6

====

- Experimental target: human immunoproteasome β5i (Homo sapiens, UniProt P28062)
- Construct: purchased Boston Biochem Inc
- Test protocol: IC50 against chymotryptic β5i activity of human immunoproteasome (96-well plate, Ac-ANW-AMC)
- Type: biochemical
- Test parameters: β5i; substrate Ac-ANW-AMC; read-out: IC50 Hu i-20S (Ac-ANW-AMC)
pIC50: −log10 of the molar value.
Quick reference for pIC50 among some molecules

Molecule: CC(C)(C)NC(=O)C[C@H](NC(=O)CCc1ccccc1)C(=O)NCCNC(=O)c1cc(-c2cccc(F)c2)ccc1F [PKS21195]
pIC50: 7.23
--
Molecule: CC(C)(C)NC(=O)C[C@H](NC(=O)CCc1ccccc1)C(=O)NCCNC(=O)c1ccc2ccccc2c1 [PKS21025]
pIC50: 6.55
--
Molecule: CC(C)(C)NC(=O)C[C@H](N)C(=O)NCCNC(=O)c1cc(-c2ccccc2F)ccc1F [PKS21284]
pIC50: 6.20
--
Molecule: CC(C)(C)OC(=O)NCC(=O)NCCNC(=O)c1cc(-c2ccccc2F)ccc1F [PKS21276]
pIC50: 4.62

====

- Experimental target: human immunoproteasome β5i (Homo sapiens)
- Construct: purchased Boston Biochem Inc
- Test protocol: IC50 against chymotryptic β5i activity of human immunoproteasome (96-well plate, Ac-ANW-AMC)
- Assay type: biochemical
- Test parameters: β5i; substrate Ac-ANW-AMC; read-out: IC50 Hu i-20S (Ac-ANW-AMC)

Smiles text: Cc1ccc(S(=O)(=O)NCC(=O)NCCNC(=O)c2cc(-c3ccccc3F)ccc2F)cc1
IC50: 40.3 µM
//
Smiles text: CC(C)(C)OC(=O)N[C@@H](CC(N)=O)C(=O)NCCNC(=O)c1cc(-c2ccccc2F)ccc1F
IC50: > 100 µM
//
Smiles text: Cc1ccc(S(=O)(=O)N[C@@H](C)C(=O)NCCNC(=O)c2cc(-c3ccccc3F)ccc2F)cc1
IC50: > 100 µM
